System: SF-268 CNS
Experiment: NCI tumour cell line growth inhibition, 48 h
readout: TGI

Looking for the measured TGI of COc1ccc2c(c1)CCCC(Br)C2=O (centres undefined) , can you help?
12.5 µM

Look at this compound and give its reported TGI. CN(C)CCCNC(=O)c1cc2[nH]c3c(cnc4ccc([N+](=O)[O-])cc43)c(=O)c2n1C
29.4 µM

Look at this compound and give its reported TGI. CC1=NNC(=O)C2CCC(=O)N12 (centres undefined)
> 100 µM

Returns the measured TGI for the input compound. Input: OC[C@H]1C[C@](O)(c2ccc(Cl)cc2)[C@@H](c2ccc(Cl)cc2)O1
> 100 µM

Return reported TGI; argument: [N-]=[N+]=NC12CC3C4CC5CC3C(C1)C(C5)C4C2
> 100 µM

Given the entry COc1ccc(C(C)=O)cc1N1C(=O)C2C(C1=O)C1(c3ccccc3)C(=O)C2(c2ccccc2)C(c2ccc(C)cc2)=C1c1ccc(C)cc1 (centres undefined) , report its measured TGI.
> 100 µM

What TGI value was documented for this compound, O=C(O)C1C2C=CC(O2)C1C(=O)NCc1ccccn1 (centres undefined) ?
> 100 µM

For the compound shown here, COC(=O)C(=Cc1cc(OC)ccc1OC)C(=O)OC , give the reported TGI.
> 100 µM

// returns reported TGI for input O=c1cnn(C/C=C/CBr)c(=O)[nH]1
39.3 µM

Name the recorded TGI for CC(=O)N(C)c1ccc(Nc2cc(C)[nH]c3ccc4ncnc4c23)cc1 .
38.7 µM

Which TGI value is on record for O=C(C=P(c1ccccc1)(c1ccccc1)c1ccccc1)c1ccc(-c2cccc([N+](=O)[O-])c2)s1 ?
> 100 µM

Given the entry O=C1/C(=C/c2ccc(Br)cc2)COc2ccc(O)c(O)c21 , report its measured TGI.
3.4 µM

Name the recorded TGI for COc1ccccc1/C(=N\OCCC(=O)O)c1cccs1 .
> 100 µM

# get_value(readout='TGI', item= COC(=O)c1cc2c3c(ccc2[nH]1)N(C(=O)c1cc2cc(OC)c(OC)c(OC)c2[nH]1)CC3CCl (centres undefined) )
> 100 µM

====

Tested on: UACC-62 melanoma
Test: NCI tumour cell line growth inhibition, 48 h
readout: GI50

Could you tell me which GI50 is on file for CCCCCCCCCCCCCC1=NC(C)(C)CN1C(C)C ?
1.74 µM

Consider the compound shown here: C=C1CC[C@@H]2[C@](C)(COC(C)=O)[C@H](OC(C)=O)CC[C@@]2(C)[C@@H]1CC(Sc1ccccc1)C1=CCOC1=O (stereo not given in full) What is its recorded GI50?
1.3 µM

Item CC(C)CCN1c2nc(Nc3cc(F)c(O)c(F)c3)ncc2N(C)C(=O)C1C (stereo not given) has what recorded GI50?
4.75 µM

For the compound shown here, COc1cc(N(CCC#N)CCC#N)ccc1/C(N=Nc1ccc([N+](=O)[O-])cc1)=N/NC(=O)c1cc(Br)ccc1O , give the reported GI50.
40.9 µg/mL

Record request: GI50 value, item Cc1cc(I)cc(CN(C)CCCN2CCCCCCC2)c1O
6 µM

Look at this compound and give its reported GI50. O=C(CNc1ccc(Cl)cc1)Nc1ccc(-c2nc3ccccc3s2)cc1
2.63 µM

Query (compound): C=CCCCCC/C=C\[C@H](O)C#CC#C/C=C/CO ; field requested: GI50
26.2 µM

Query (compound): Cn1nc(N)c2cc([C@@H]3Nc4ccc5[nH]ncc5c4[C@H]4C5CCC(C5)[C@@H]34)ccc21 (stereo not given in full) ; field requested: GI50
0.425 µM

Quick one: GI50 of COc1cc2nc(-c3ccc(Cl)cc3)cc(OCCCN3CCCCC3)c2cc1OC ?
1.94 µM

For Cc1ccc(C)c(C2=C(c3cn(C)c4ccccc34)C(=O)NC2=O)c1 , what is its reported GI50?
> 25 µM

====

Please go through the items and note down their GI50.
System: COLO 205 colon
Test: NCI tumour cell line growth inhibition, 48 h

I would be grateful if you could share the reported GI50 for COc1ccc(-n2cc(-c3cc(OC)c(OC)c(OC)c3)c(C(=O)C(F)(F)F)c2C)cc1 .
65.2 µM

Which GI50 is reported for this molecule? N#CC(=C1C=CC(=NO)C=C1)c1ccccc1
6.33 µM

Returns the measured GI50 for the input molecule. Input: C=C1CC[C@@H]2[C@](C)(COC(C)=O)[C@H](OC(C)=O)CC[C@@]2(C)[C@@H]1CC(Sc1ccccc1)C1=CCOC1=O (some centres undefined)
1.49 µM

Please give the measured GI50 for this molecule: CCCCCCCCCCCCCC1=NC(C)(C)CN1C(C)C
1.41 µM

So what does the record say about GI50 for O=c1c2sc(=S)n(-c3ccc(F)cc3)c2ncn1Cc1ccc(F)cc1F ?
> 100 µM

Which GI50 value is on record for CCC(C)n1ncn(-c2ccc(N3CCN(c4ccc(OCC5COC(Cn6cncn6)(c6ccc(Cl)cc6Cl)O5)cc4)CC3)cc2)c1=O (centres undefined) ?
4.12 µM

Which GI50 is listed for Cc1ccc(C)c(C2=C(c3cn(C)c4ccccc34)C(=O)NC2=O)c1 ?
7.36 µM

Which GI50 is reported for this molecule? C=CCCCCC/C=C\[C@H](O)C#CC#C/C=C/CO
36.7 µM

Return reported GI50; argument: COc1ccc(C(C)=O)cc1N1C(=O)C2C(C1=O)C1(c3ccccc3)C(=O)C2(c2ccccc2)C(c2ccc(C)cc2)=C1c1ccc(C)cc1 (centres undefined)
> 100 µM

====

Tested on: MCF7 breast
Assay: NCI tumour cell line growth inhibition, 48 h
Think of 20 µM as a floor: if TGI stands on it or above, it is MET; beneath it, NOT MET.

Exam item: decide whether the reported TGI for CCOC(=O)c1c(NC(=O)c2cccs2)sc2c1CCCC2 is at least 20 µM.
MET

Please check the record C=C1C(=O)C[C@H]2C(=C)C(=O)O[C@@H]2C2C1CC[C@@]2(C)O (stereo not given in full) and state if its TGI is at or above 20 µM.
MET

hey, is TGI for this one >= 20 µM? CC(C)CCN1c2nc(Nc3cc(F)c(O)c(F)c3)ncc2N(C)C(=O)C1C (stereo not given)
NOT MET

Test whether the compound CC(=O)Nc1ccc(C(=O)NN2C(=O)CSC2c2ccc([N+](=O)[O-])cc2)cc1 (stereo not given) records TGI of 20 µM or higher.
MET

In plain terms: is recorded TGI at least 20 µM for O=C1c2cccc(NCCCNCCO)c2C(=O)c2cccc(NCCCNCCO)c21 ?
NOT MET

Hi, just wondering whether NC1CC(=O)c2c(Br)csc21 (stereo not given) shows TGI of 20 µM or higher.
MET

Dear colleague, could you confirm whether Nc1ccc2c(c1)N(C(=O)c1cc3cc(NC(=O)c4cc5ccccc5o4)ccc3[nH]1)CC2CCl (stereo not given) has TGI at or above 20 µM?
NOT MET

Can C=C1CC[C@@H]2[C@](C)(COC(C)=O)[C@H](OC(C)=O)CC[C@@]2(C)[C@@H]1CC(Sc1ccccc1)C1=CCOC1=O (stereo not given in full) be said to have TGI at or above 20 µM?
NOT MET

Can C1C2CC3CC1CC(Nc1nc(NC45CC6CC(CC(C6)C4)C5)nc(NC45CC6CC(CC(C6)C4)C5)n1)(C2)C3 be said to have TGI at or above 20 µM?
MET

Please check the record CN(C)N=Nc1ccc(NC=O)cc1 and state if its TGI is at or above 20 µM.
MET

====

Tested on: SK-MEL-2 melanoma
Experiment: NCI tumour cell line growth inhibition, 48 h
readout: TGI

Given the molecule CO/N=C/c1cc(OC)c(OC)c(OC)c1 , what is its reported TGI?
> 100 µM

What TGI value was documented for this molecule, CCOC(=O)c1c(-c2ccc(OC)cc2)c(C#N)c(=S)n(C2OC(COC(C)=O)C(OC(C)=O)C(OC(C)=O)C2OC(C)=O)c1-c1ccccc1 (stereo unspecified) ?
> 100 µM

I'd like to know its TGI. The molecule in question is COc1ccc(C2COc3cc(OC(C)=O)c(OC(C)=O)cc3C2)cc1 (stereo unspecified)
58.7 µM

Would you kindly share the measured TGI for O=Cc1cn(CCCCCCCCCCCCn2cc(C=O)c3ccccc32)c2ccccc12 ?
> 100 µM

TGI lookup needed for COc1cc(C(Cc2ccccc2)NC(C)=O)oc(=O)c1 (stereo unspecified) , thanks.
> 100 µM

Requested read-out: TGI. Entry: O=C1NC(=O)C(c2c[nH]c3ccccc23)=C1c1cnc[nH]1
> 100 µM

====

Test system: SF-295 CNS
Experiment: NCI tumour cell line growth inhibition, 48 h
Give measured TGI for each item. Keep answers brief.
Numeric only. Scale: µM

Item: CC(C)(C)[Si](C)(C)OCC1OC(n2ccc(N)nc2=O)C(O[Si](C)(C)C(C)(C)C)C1O[Si](C)(C)C(C)(C)C (stereo not given) Test system: SF-295 CNS Read-out: TGI Value: ?
3.75

Could you share what TGI was measured for Cn1nc(N)c2cc([C@@H]3Nc4ccc5[nH]ncc5c4[C@H]4C5CCC(C5)[C@@H]34)ccc21 (stereo not given in full) , tested on SF-295 CNS?
11.7
